- Study System: h-GABA-A α2β2γ1 receptor expressed in Xenopus laevis oocytes (Homo sapiens (Human), UniProt P47869+Q8N1C3)
- Method: Two-electrode voltage clamp electrophysiology in Xenopus oocytes expressing GABAA receptors
- Format: cell-based
- Experimental Setup: GABA EC20, test compound at approx. 30-fold its Ki α2β2γ1, at least 3 oocytes
- From the text: Functional Expression of GABAA Receptors: Xenopus Oocytes Preparation Xenopus laevis oocytes at maturation stages V-VI were used for the expression of cloned mRNA encoding GABAA receptor subunits. Oocytes ready for RNA micro-injection were bought from Ecocyte, Castrop-Rauxel, Germany and stored in modified Barth's medium (composition in mM: NaCl 88, KCl 1, NaHCO3 2.4, HEPES 10, MgSO4 0.82, CaNO3 0.33, CaCl2 0.33, pH=7.5) at 20 C. until the experiment. Xenopus Oocytes Microinjection […]
Reported Fold increase h-GABA-A α2β2γ1 oocyte @ 30-fold Ki values follow for various compounds
Lab note: write the figure by itself, no unit.

# Smiles Structure, Result Number
measured = [
    ("C[C@@H]1N=C(c2c(F)cccc2F)c2c(sc3c2C[C@@H](C(F)F)C3)-n2c(CO)cnc21", 1.68),
    ("Cc1nnc2n1-c1sc3c(c1C(c1c(F)cccc1F)=N[C@H]2C)C[C@@H](C(F)F)C3", 1.41),
    ("C[C@@H]1N=C(c2c(F)cccc2F)c2c(sc3c2C[C@@H](C(F)F)C3)-n2c(C3CC3)nnc21", 1.37),
    ("Cc1nc2n(n1)-c1sc3c(c1C(c1c(F)cccc1F)=N[C@H]2C)C[C@H](C(F)F)C3", 1.25),
]

Entry Cc1cnc2n1-c1sc3c(c1C(c1c(F)cccc1F)=N[C@H]2C)C[C@@H](C(F)F)C3 needs its Fold increase h-GABA-A α2β2γ1 oocyte @ 30-fold Ki filled in; supply it. 1.70

* * *

- Study System: human GABAA α1β3γ2 receptor (Homo sapiens (Human), UniProt P14867+P18507)
- Method: Radioligand binding assay, competition for [3H]Flumazenil, γ2-containing GABAA subtypes
- Experimental Setup: Ki α1β3γ2 (nM)/Ki α2β2γ1 (nM)
γ2/γ1 Selectivity Ratio strictly under 50 means Satisfied; at 50 or over means Not satisfied.

The following compounds have reported results that may help.
# Compound, Qualitative Label
measured = [
    ("Cc1nnc2n1-c1sc3c(c1C(c1c(F)cccc1F)=N[C@H]2C)C[C@@H](C)C3", "Satisfied"),
    ("Cc1nnc2n1-c1sc3c(c1C(c1c(F)cccc1F)=N[C@H]2C)CCC3 [RE-C, reference compound]", "Satisfied"),
    ("Cc1nc2n(n1)-c1sc3c(c1C(c1c(F)cccc1F)=N[C@H]2C)C[C@H](C(F)F)C3", "Not satisfied"),
]

Take the compound C[C@@H]1N=C(c2c(F)cccc2Cl)c2c(sc3c2C[C@@H](C(F)F)C3)-n2c(C3CC3)nnc21 and say whether its γ2/γ1 Selectivity Ratio is less than 50. Not satisfied

Take the compound Cc1nnc2n1-c1ccc(Cl)cc1C(c1ccccc1)=NC2 [Alprazolam, reference compound] and say whether its γ2/γ1 Selectivity Ratio is less than 50. Satisfied

* * *

- Study System: human GABAA α5β2γ1 receptor (Homo sapiens (Human), UniProt P31644+Q8N1C3)
- Method: Radioligand binding assay, competition for [3H]RO7239181, γ1-containing GABAA subtypes
- Experimental Setup: membranes from HEK293F cells, mean of two determinations
Reported log10 of Ki values follow for various molecules
Answers are given as log10 of Ki in nM.

Answered examples (5):
# Smiles Structure, Measured Endpoint, Result Number
data = [
    ("C[C@@H]1N=C(c2c(F)cccc2F)c2c(sc3c2C[C@@H](C(F)F)C3)-n2nc(C(=O)N3CCS(=O)(=O)CC3)nc21", "log10 of Ki", 0.66),
    ("C[C@@H]1N=C(c2c(F)cccc2Cl)c2c(sc3c2C[C@@H](C(F)F)C3)-n2c(-c3cccnn3)nnc21", "log10 of Ki", 0.57),
    ("Cc1nc2n(n1)-c1sc3c(c1C(c1c(F)cccc1F)=N[C@H]2C)C[C@@H](C(F)F)C3", "log10 of Ki", 0.00),
    ("Cc1nnc2n1-c1sc3c(c1C(c1c(F)cccc1F)=NC2)C[C@@H](C#N)C3", "log10 of Ki", 1.21),
    ("Cc1nnc2n1-c1sc3c(c1C(c1c(F)cccc1Cl)=NC2)C[C@@H](C(F)F)C3", "log10 of Ki", 0.08),
]

API: the following record is the query input.
Entry Cc1nnc2n1-c1sc3c(c1C(c1c(F)cccc1Cl)=N[C@H]2C)C[C@@H](C(F)F)C3 needs its log10 of Ki filled in; supply it. 0.20

* * *

Reported pKi values follow for various compounds
- Study System: human GABAA α1β3γ2 receptor (Homo sapiens (Human), UniProt P14867+P18507)
- Method: Radioligand binding assay, competition for [3H]Flumazenil, γ2-containing GABAA subtypes
# log scale: pKi equals minus log10 of the concentration in mol/L

Answered examples (5):
# Compound, Study System, Measured Endpoint, Result Number
measured = [
    ("Cc1nc2n(n1)-c1sc3c(c1C(c1c(F)cccc1F)=N[C@H]2C)C[C@@H](C(F)F)C3 [Example 16]", "human GABAA α1β3γ2 receptor (Homo sapiens (Human), UniProt P14867+P18507)", "pKi", 6.35),
    ("C[C@@H]1N=C(c2c(F)cccc2F)c2c(sc3c2C[C@@H](C(F)F)C3)-n2c(C3CC3)nnc21 [Example 8]", "human GABAA α1β3γ2 receptor (Homo sapiens (Human), UniProt P14867+P18507)", "pKi", 6.34),
    ("Cc1nnc2n1-c1sc3c(c1C(c1c(F)cccc1F)=N[C@H]2C)C[C@@H](C(F)F)C3 [Example 5]", "human GABAA α1β3γ2 receptor (Homo sapiens (Human), UniProt P14867+P18507)", "pKi", 6.64),
    ("Cc1nc2n(n1)-c1sc3c(c1C(c1c(F)cccc1F)=N[C@H]2C)C[C@H](C(F)F)C3 [Example 17]", "human GABAA α1β3γ2 receptor (Homo sapiens (Human), UniProt P14867+P18507)", "pKi", 5.18),
    ("Cc1nnc2n1-c1sc3c(c1C(c1c(F)cccc1F)=NC2)C[C@@H](C)C3 [Example 14]", "human GABAA α1β3γ2 receptor (Homo sapiens (Human), UniProt P14867+P18507)", "pKi", 7.00),
]

Entry Cc1nnc2n1-c1sc3c(c1C(c1c(F)cccc1F)=N[C@H]2C)C[C@@H](C(F)(F)F)C3 [Example 13] needs its pKi filled in; supply it. 6.15

Entry C[C@@H]1N=C(c2c(F)cccc2Cl)c2c(sc3c2C[C@@H](C(F)F)C3)-n2c(-c3cccnn3)nnc21 [Example 12] needs its pKi filled in; supply it. 5.63

* * *

- Study System: human GABAA α2β2γ1 receptor (Homo sapiens (Human), UniProt P47869+Q8N1C3)
- Method: Radioligand binding assay, competition for [3H]RO7239181, γ1-containing GABAA subtypes
- Experimental Setup: read-out: Ki h-GABAA α2β2γ1; membranes from HEK293F cells, [3H]RO7239181 20-30 nM, mean of two determinations
Reported pKi values follow for various molecules
# log scale: pKi equals minus log10 of the concentration in mol/L

Answered examples (8):
# Molecule, Study System, pKi
measured = [
    ("Cc1nnc2n1-c1sc3c(c1C(c1c(F)cccc1F)=NC2)C[C@@H](C(F)F)C3 [Example 3]", "human GABAA α2β2γ1 receptor (Homo sapiens (Human), UniProt P47869+Q8N1C3)", 8.54),
    ("Cc1nc2n(n1)-c1sc3c(c1C(c1c(F)cccc1F)=N[C@H]2C)C[C@H](C(F)F)C3 [Example 17]", "human GABAA α2β2γ1 receptor (Homo sapiens (Human), UniProt P47869+Q8N1C3)", 7.24),
    ("Fc1cccc(Cl)c1C1=NCc2nnc(C3CC3)n2-c2sc3c(c21)C[C@@H](C(F)F)C3 [Example 6]", "human GABAA α2β2γ1 receptor (Homo sapiens (Human), UniProt P47869+Q8N1C3)", 8.18),
    ("Cc1nnc2n1-c1sc3c(c1C(c1c(F)cccc1F)=NC2)C[C@@H](C#N)C3 [Example 2]", "human GABAA α2β2γ1 receptor (Homo sapiens (Human), UniProt P47869+Q8N1C3)", 7.37),
    ("Cc1nnc2n1-c1sc3c(c1C(c1c(F)cccc1F)=NC2)C[C@@H](C)C3 [Example 14]", "human GABAA α2β2γ1 receptor (Homo sapiens (Human), UniProt P47869+Q8N1C3)", 8.55),
    ("C[C@@H]1N=C(c2c(F)cccc2F)c2c(sc3c2C[C@@H](C(F)F)C3)-n2c(C3CC3)nnc21 [Example 8]", "human GABAA α2β2γ1 receptor (Homo sapiens (Human), UniProt P47869+Q8N1C3)", 8.34),
    ("C[C@@H]1N=C(c2c(F)cccc2F)c2c(sc3c2C[C@H](C(F)F)C3)-n2c(CO)cnc21 [Example 22]", "human GABAA α2β2γ1 receptor (Homo sapiens (Human), UniProt P47869+Q8N1C3)", 7.99),
    ("Cc1nnc2n1-c1sc3c(c1C(c1c(F)cccc1F)=N[C@H]2C)C[C@@H](C(F)(F)F)C3 [Example 13]", "human GABAA α2β2γ1 receptor (Homo sapiens (Human), UniProt P47869+Q8N1C3)", 7.79),
]

Entry C[C@@H]1N=C(c2c(F)cccc2F)c2c(sc3c2C[C@@H](C(F)F)C3)-n2nc(C(=O)N3CCS(=O)(=O)CC3)nc21 [Example 19] needs its pKi filled in; supply it. 8.27

Entry Cc1nnc2n1-c1sc3c(c1C(c1c(F)cccc1F)=N[C@H]2C)C[C@@H](C)C3 [Example 15] needs its pKi filled in; supply it. 8.20

Entry Cc1nnc2n1-c1sc3c(c1C(c1c(F)cccc1F)=N[C@H]2C)C[C@@H](C(F)F)C3 [Example 5] needs its pKi filled in; supply it. 8.47

Entry Fc1cccc(F)c1C1=NCc2nnc(C3CC3)n2-c2sc3c(c21)C[C@@H](C(F)F)C3 [Example 7] needs its pKi filled in; supply it. 8.19

Entry Cc1nnc2n1-c1sc3c(c1C(c1c(F)cccc1Cl)=NC2)C[C@@H](C(F)F)C3 [Example 4] needs its pKi filled in; supply it. 8.34

Entry Cc1nnc2n1-c1sc3c(c1C(c1c(F)cccc1Cl)=NC2)C[C@@H](C#N)C3 [Example 1] needs its pKi filled in; supply it. 7.60

Entry C[C@@H]1N=C(c2c(F)cccc2F)c2c(sc3c2C[C@@H](C(F)F)C3)-n2nc(C(=O)NCCO)nc21 [Example 18] needs its pKi filled in; supply it. 8.24
